- ASSAY SUMMARY: Drug concentration in Sprague-Dawley rat brain at 1 mg/kg, iv measured after 45 mins by LC-MS/MS analysis
- Type: ADME, organism-based
- TEST SETTINGS: read-out: Ct
OBSERVABLE: concentration at 0.75 h (ng/g)

P = O=S(=O)(c1cccc(Cl)c1)n1cc(C(F)F)c2c(N3CCNCC3)cccc21
Q = O=S(=O)(c1cccc(F)c1)n1cc(C(F)F)c2c(N3CCNCC3)cccc21
Which record would sort first by descending concentration at 0.75 h, P or Q ? Please indicate the selected item by its label. P

====

- ASSAY SUMMARY: Drug concentration in Sprague-Dawley rat plasma at 1 mg/kg, iv measured after 15 mins by LC-MS/MS analysis
- Type: ADME, organism-based
OBSERVABLE: concentration at 0.25 h (ng/mL)

a = O=S(=O)(c1cccc(Cl)c1)n1cc(C(F)F)c2c(N3CCNCC3)cccc21
b = O=S(=O)(c1cccc(F)c1)n1cc(C(F)F)c2c(N3CCNCC3)cccc21
Which record would sort first by descending concentration at 0.25 h, a or b ? Please indicate the selected item by its label. a
